meta.source: patent US20020132800A1

- procedure-details: Stability testing of the preferred embodiment tablet under accelerated storage conditions (ingredient content as % of claim)
- Assay type: physicochemical
- settings: 13 wk; 40 +/- 2 deg C and 75 +/- 5% RH; 150 cc white HDPE bottle
endpoint-label: Result as % of claim at indicated weeks

Field: example entries. Status: answers known.
Prompt: Given the molecule `[Se]` , what is its reported Result as % of claim at indicated weeks?
Response: 129 % of claim

Prompt: Next molecule: `Cc1cc2nc3c(=O)[nH]c(=O)nc-3n(C[C@H](O)[C@H](O)[C@H](O)CO)c2cc1C`
Response: 123 % of claim

Prompt: Next molecule: `Nc1nc2ncc(CNc3ccc(C(=O)N[C@@H](CCC(=O)O)C(=O)O)cc3)nc2c(=O)[nH]1`
Response: 120 % of claim

Prompt: Next molecule: `[Ca+2]`
Response: 120 % of claim

Prompt: Next molecule: `Cc1ncc(CO)c(CO)c1O.Cl`
Response: 137 % of claim

Prompt: Next molecule: `[Zn]`
Response: 108 % of claim

Prompt: Next molecule: `O=C(O)CCCC[C@@H]1SC[C@@H]2NC(=O)N[C@@H]21`
Response: 114 % of claim

Prompt: Next molecule: `[Cu]`
Response: 114 % of claim

Prompt: Next molecule: `O=C1O[C@H]([C@@H](O)CO)C(O)=C1O`
Response: 114 % of claim

Prompt: Next molecule: `[Mn+2]`
Response: 115 % of claim

Others:
Prompt: Given the molecule `CC(C)=CCC/C(C)=C/C=C/C(C)=C/C=C/C(C)=C/C=C/C=C(C)/C=C/C=C(C)/C=C/C=C(\C)CCC=C(C)C` , what is its reported Result as % of claim at indicated weeks?
Response: 156 % of claim

Prompt: Next molecule: `[Cr]`
Response: 133 % of claim

Prompt: Next molecule: `CC1=C(/C=C/C(C)=C/C=C/C(C)=C/C=C/C=C(C)/C=C/C=C(C)/C=C/C2=C(C)CCCC2(C)C)C(C)(C)CCC1`
Response: 144 % of claim

====

List of Result as % of claim at indicated weeks values.
- procedure-details: Stability testing of the preferred embodiment tablet under accelerated storage conditions (ingredient content as % of claim)
- Type: physicochemical
- settings: 4 wk; 40 +/- 2 deg C and 75 +/- 5% RH; 150 cc white HDPE bottle

Prompt: Given the compound [Zn] [Zinc] , what is its reported Result as % of claim at indicated weeks?
Response: 109 % of claim

====

- procedure-details: Stability testing of the preferred embodiment tablet under accelerated storage conditions (ingredient content as % of claim)
- Type: physicochemical
- settings: 8 wk; 40 +/- 2 deg C and 75 +/- 5% RH; 150 cc white HDPE bottle
endpoint-label: Result as % of claim at indicated weeks

Field: example entries. Status: answers known.
Prompt: Given the compound `CC1=C(/C=C/C(C)=C/C=C/C(C)=C/C=C/C=C(C)/C=C/C=C(C)/C=C/C2=C(C)CCCC2(C)C)C(C)(C)CCC1` , what is its reported Result as % of claim at indicated weeks?
Response: 130 % of claim

Prompt: Next compound: `[Mn+2]`
Response: 115 % of claim

Prompt: Next compound: `CC(C)=CCC/C(C)=C/C=C/C(C)=C/C=C/C(C)=C/C=C/C=C(C)/C=C/C=C(C)/C=C/C=C(\C)CCC=C(C)C`
Response: 170 % of claim

Prompt: Next compound: `O=C1O[C@H]([C@@H](O)CO)C(O)=C1O`
Response: 103 % of claim

Prompt: Next compound: `[Cr]`
Response: 120 % of claim

Others:
Prompt: Given the compound `[Zn]` , what is its reported Result as % of claim at indicated weeks?
Response: 117 % of claim

Prompt: Next compound: `Cc1cc2nc3c(=O)[nH]c(=O)nc-3n(C[C@H](O)[C@H](O)[C@H](O)CO)c2cc1C`
Response: 125 % of claim

Prompt: Next compound: `[Se]`
Response: 123 % of claim

Prompt: Next compound: `Nc1nc2ncc(CNc3ccc(C(=O)N[C@@H](CCC(=O)O)C(=O)O)cc3)nc2c(=O)[nH]1`
Response: 125 % of claim

Prompt: Next compound: `Cc1ncc(CO)c(CO)c1O.Cl`
Response: 110 % of claim

Prompt: Next compound: `[Cu]`
Response: 111 % of claim

Prompt: Next compound: `O=C(O)CCCC[C@@H]1SC[C@@H]2NC(=O)N[C@@H]21`
Response: 100 % of claim

====

List of Result as % of claim at indicated weeks values.
- procedure-details: Stability testing of the preferred embodiment tablet under accelerated storage conditions (ingredient content as % of claim)
- Assay type: physicochemical
- settings: 0 wk; 40 +/- 2 deg C and 75 +/- 5% RH; 150 cc white HDPE bottle

Prompt: Given the molecule Cc1cc2nc3c(=O)[nH]c(=O)nc-3n(C[C@H](O)[C@H](O)[C@H](O)CO)c2cc1C [Vitamin B2, Riboflavin] , what is its reported Result as % of claim at indicated weeks?
Response: 132 % of claim

Others:
Prompt: Given the molecule [Se] [Selenium] , what is its reported Result as % of claim at indicated weeks?
Response: 103 % of claim

Prompt: Next molecule: Cc1ncc(CO)c(CO)c1O.Cl [Vitamin B6]
Response: 116 % of claim

Prompt: Next molecule: Nc1nc2ncc(CNc3ccc(C(=O)N[C@@H](CCC(=O)O)C(=O)O)cc3)nc2c(=O)[nH]1 [Folic Acid]
Response: 169 % of claim

Prompt: Next molecule: O=C1O[C@H]([C@@H](O)CO)C(O)=C1O [Vitamin C]
Response: 108 % of claim

Prompt: Next molecule: [Zn] [Zinc]
Response: 121 % of claim

====

- procedure-details: Stability testing of the preferred embodiment tablet under accelerated storage conditions (ingredient content as % of claim)
- Type: physicochemical
- settings: 0 wk; 40 +/- 2 deg C and 75 +/- 5% RH; 150 cc white HDPE bottle
List of Result as % of claim at indicated weeks values.

Field: example entries. Status: answers known.
Prompt: Given the molecule `O=C(O)CCCC[C@@H]1SC[C@@H]2NC(=O)N[C@@H]21` , what is its reported Result as % of claim at indicated weeks?
Response: 105 % of claim

Prompt: Next molecule: `CC(C)=CCC/C(C)=C/C=C/C(C)=C/C=C/C(C)=C/C=C/C=C(C)/C=C/C=C(C)/C=C/C=C(\C)CCC=C(C)C`
Response: 131 % of claim

Prompt: Next molecule: `[Cu]`
Response: 115 % of claim

Prompt: Next molecule: `[Cr]`
Response: 139 % of claim

Prompt: Next molecule: `CC1=C(/C=C/C(C)=C/C=C/C(C)=C/C=C/C=C(C)/C=C/C=C(C)/C=C/C2=C(C)CCCC2(C)C)C(C)(C)CCC1`
Response: 123 % of claim

Others:
Prompt: Given the molecule `[Mn+2]` , what is its reported Result as % of claim at indicated weeks?
Response: 119 % of claim

====

List of Result as % of claim at indicated weeks values.
- procedure-details: Stability testing of the preferred embodiment tablet under accelerated storage conditions (ingredient content as % of claim)
- Assay type: physicochemical
- settings: 26 wk; 40 +/- 2 deg C and 75 +/- 5% RH; 150 cc white HDPE bottle

Field: example entries. Status: answers known.
Prompt: Given the compound `O=C(O)CCCC[C@@H]1SC[C@@H]2NC(=O)N[C@@H]21` , what is its reported Result as % of claim at indicated weeks?
Response: 93.0 % of claim

Prompt: Next compound: `Nc1nc2ncc(CNc3ccc(C(=O)N[C@@H](CCC(=O)O)C(=O)O)cc3)nc2c(=O)[nH]1`
Response: 117 % of claim

Prompt: Next compound: `[Ca+2]`
Response: 118 % of claim

Prompt: Next compound: `CC1=C(/C=C/C(C)=C/C=C/C(C)=C/C=C/C=C(C)/C=C/C=C(C)/C=C/C2=C(C)CCCC2(C)C)C(C)(C)CCC1`
Response: 124 % of claim

Prompt: Next compound: `O=C1O[C@H]([C@@H](O)CO)C(O)=C1O`
Response: 104 % of claim

Prompt: Next compound: `Cc1ncc(CO)c(CO)c1O.Cl`
Response: 114 % of claim

Consider the additional compound presented here.
Prompt: Given the compound `CC(C)=CCC/C(C)=C/C=C/C(C)=C/C=C/C(C)=C/C=C/C=C(C)/C=C/C=C(C)/C=C/C=C(\C)CCC=C(C)C` , what is its reported Result as % of claim at indicated weeks?
Response: 150 % of claim

====

- procedure-details: Stability testing of the preferred embodiment tablet under accelerated storage conditions (ingredient content as % of claim)
- Format: physicochemical
- settings: 4 wk; 40 +/- 2 deg C and 75 +/- 5% RH; 150 cc white HDPE bottle
endpoint-label: Result as % of claim at indicated weeks

Prompt: Given the compound O=C(O)CCCC[C@@H]1SC[C@@H]2NC(=O)N[C@@H]21 [Biotin] , what is its reported Result as % of claim at indicated weeks?
Response: 101 % of claim

Prompt: Next compound: CC(C)=CCC/C(C)=C/C=C/C(C)=C/C=C/C(C)=C/C=C/C=C(C)/C=C/C=C(C)/C=C/C=C(\C)CCC=C(C)C [Lycopene]
Response: 144 % of claim

Prompt: Next compound: [Se] [Selenium]
Response: 136 % of claim

Prompt: Next compound: [Mn+2] [Manganese]
Response: 114 % of claim

Prompt: Next compound: Cc1cc2nc3c(=O)[nH]c(=O)nc-3n(C[C@H](O)[C@H](O)[C@H](O)CO)c2cc1C [Vitamin B2, Riboflavin]
Response: 123 % of claim

Prompt: Next compound: [Cr] [Chromium]
Response: 128 % of claim

Consider the additional compound presented here.
Prompt: Given the compound [Cu] [Copper] , what is its reported Result as % of claim at indicated weeks?
Response: 111 % of claim
